Target: CA IX (Homo sapiens, UniProt Q16790)
Assay: biochemical
Conditions: library compounds with IDs A… and B…; from observed Ki (nM); read-out: pKi (exp.) (converted)
Measurement type: Ki (nM)
Number only, in nM; omit the unit.

[
  {
    "Compound": "COc1ccc2c(c1)CCN(S(N)(=O)=O)[C@@H]2c1ccc(N)cc1 [B0230]",
    "Ki (nM)": 12
  },
  {
    "Compound": "C[C@H](NC(=O)Nc1ccc(NS(N)(=O)=O)cc1)c1cccc2ccccc12 [B0045]",
    "Ki (nM)": 3.4
  }
]

Given the compound NS(=O)(=O)c1ccc(NC(=S)Nc2ccc(C3c4ccc(O)cc4Oc4cc(O)ccc43)c(C(=O)O)c2)c(Cl)c1 [B0381] and test system CA IX (Homo sapiens, UniProt Q16790), the measured Ki is 32
